B1: Tyrosine-protein kinase BTK, residues 215 to 273; numbered along this chain, Q06187 (parent)
chain: ELKKVVALYDYMPMNANDLQLRKGDEYFILEESNLPWWRARDKNGQEGYIPSNYVTEAE

# Variants of: B1
# assay-notes: abundance fitness (aPCA) (normalised: wild type 0, dead -1); higher = more abundant; growth selection in yeast, the domain comes from the species named
# settings: Homo sapiens
Please provide measured abundance fitness for the entries that follow.

Supply recorded abundance fitness for E31A here.
-0.008

Supply recorded abundance fitness for E59Y here.
-0.116

Supply recorded abundance fitness for L19C here.
-0.444

// data source = the Human Domainome abundance scans (Beltran et al. 2025)
